Recorded values, source paper PMC12951562.

Assayed System: TNS4 (Homo sapiens, UniProt Q8IZW8)
Construct: made in house; host or cells: HEK293 (transient transfection), unpurified extract
Sequence (Q8IZW8 19-715): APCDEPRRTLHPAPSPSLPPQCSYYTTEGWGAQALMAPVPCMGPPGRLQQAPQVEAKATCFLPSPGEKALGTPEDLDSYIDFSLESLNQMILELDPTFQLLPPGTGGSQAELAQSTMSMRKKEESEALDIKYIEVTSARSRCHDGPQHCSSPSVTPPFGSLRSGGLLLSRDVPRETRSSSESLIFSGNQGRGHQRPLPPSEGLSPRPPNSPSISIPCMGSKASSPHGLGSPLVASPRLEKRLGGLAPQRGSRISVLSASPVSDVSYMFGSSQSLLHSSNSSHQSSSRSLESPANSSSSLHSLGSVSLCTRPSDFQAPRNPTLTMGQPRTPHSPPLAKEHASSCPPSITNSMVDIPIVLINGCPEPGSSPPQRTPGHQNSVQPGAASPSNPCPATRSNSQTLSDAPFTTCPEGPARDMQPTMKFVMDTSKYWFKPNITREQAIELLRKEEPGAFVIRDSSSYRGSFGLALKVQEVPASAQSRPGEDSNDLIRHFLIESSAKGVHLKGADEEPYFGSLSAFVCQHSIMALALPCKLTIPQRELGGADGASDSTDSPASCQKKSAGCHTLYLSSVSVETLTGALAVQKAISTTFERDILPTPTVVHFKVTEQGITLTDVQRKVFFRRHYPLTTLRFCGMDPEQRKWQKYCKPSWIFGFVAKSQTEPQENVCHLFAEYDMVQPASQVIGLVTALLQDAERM
Assay Text: biochemical
Format: binding
Condition Parameters: dose-response; read-out: KD

- Line Notation: "C/C(=C\\C(=O)N[C@H](C(=O)N1CCC[C@H]1C(=O)N(c1ccccc1)c1ccc(I)cc1)C(C)(C)C)c1ccc(OP(=O)(O)O)cc1"
  Assayed System: "TNS4 (Homo sapiens, UniProt Q8IZW8)"
  Unit Abbrev: "nM"
  Kd: 1800

----------
Assayed System: STAT2 (Homo sapiens, UniProt P52630)
Construct: made in house; host or cells: HEK293 (transient transfection), unpurified extract
Sequence (P52630 whole entry): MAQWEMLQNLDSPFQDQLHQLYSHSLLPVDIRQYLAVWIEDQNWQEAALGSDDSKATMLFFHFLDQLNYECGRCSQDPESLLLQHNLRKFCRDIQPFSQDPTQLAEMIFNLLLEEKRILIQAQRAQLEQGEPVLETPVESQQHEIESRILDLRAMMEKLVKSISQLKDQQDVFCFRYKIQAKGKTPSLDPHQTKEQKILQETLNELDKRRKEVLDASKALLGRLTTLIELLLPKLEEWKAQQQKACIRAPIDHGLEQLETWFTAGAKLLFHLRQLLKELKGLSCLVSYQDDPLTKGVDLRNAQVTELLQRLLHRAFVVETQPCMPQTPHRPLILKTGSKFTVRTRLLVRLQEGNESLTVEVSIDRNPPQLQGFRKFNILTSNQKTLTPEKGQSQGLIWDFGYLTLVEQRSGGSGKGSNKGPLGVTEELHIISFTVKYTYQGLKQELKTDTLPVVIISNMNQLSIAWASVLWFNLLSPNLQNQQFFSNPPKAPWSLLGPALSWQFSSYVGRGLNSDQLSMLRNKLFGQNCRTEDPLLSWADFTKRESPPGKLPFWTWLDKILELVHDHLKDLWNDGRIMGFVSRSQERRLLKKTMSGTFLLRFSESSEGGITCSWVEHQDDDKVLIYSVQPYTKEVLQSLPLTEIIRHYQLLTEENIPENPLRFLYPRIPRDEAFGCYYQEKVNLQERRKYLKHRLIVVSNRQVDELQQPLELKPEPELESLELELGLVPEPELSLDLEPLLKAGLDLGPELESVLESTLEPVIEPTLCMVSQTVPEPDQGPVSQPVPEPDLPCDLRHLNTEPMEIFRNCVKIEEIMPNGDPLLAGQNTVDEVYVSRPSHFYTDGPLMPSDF
Assay Text: biochemical
Format: binding
Condition Parameters: read-out: percent of DMSO vehicle control
Non-standard residues stand in square brackets, D forms with d. Residues, ends and D or L forms follow the SMILES beside them. *: point of attachment. pY = N[C@@H](Cc1ccc(OP(=O)(O)O)cc1)C(=O)O; Caffeoyl = O=C(/C=C/c1ccc(O)c(O)c1)*

- Compound: "CC(=O)N1CC[C@H]2CC[C@@H](C(=O)N[C@@H](CCC(N)=O)C(=O)NC(c3ccccc3)c3ccccc3)N2C(=O)[C@@H](NC(=O)c2cc3cc(C(F)(F)P(=O)(O)O)ccc3[nH]2)C1"
  Assayed System: "STAT2 (Homo sapiens, UniProt P52630)"
  percent of DMSO vehicle control at 10 µM, %: 100
- Compound: "CC(=O)N[C@@H](Cc1ccc(CP(=O)(O)O)cc1)C(=O)NC1(C(=O)N[C@@H](CC(N)=O)C(=O)NCCCc2c(O)ccc3ccccc23)CCCCC1"
  Assayed System: "STAT2 (Homo sapiens, UniProt P52630)"
  percent of DMSO vehicle control at 10 µM, %: 27.3
- Compound: "NC(=O)CC[C@H](NC(=O)[C@@H]1CC[C@@H]2CCN(C(=O)CCCCCC#Cc3cccc4c3CN(C3CCC(=O)NC3=O)C4=O)C[C@H](NC(=O)c3cc4cc(C(F)(F)P(=O)(O)O)ccc4[nH]3)C(=O)N21)C(=O)NC(c1ccccc1)c1ccccc1 (stereo partly shown)"
  Assayed System: "STAT2 (Homo sapiens, UniProt P52630)"
  percent of DMSO vehicle control at 10 µM, %: 0.1
- Compound: "CC[C@H](C)[C@H](NC(=O)[C@H](CCC(=O)O)NC(=O)[C@H](CCC(=O)O)NC(=O)[C@H](Cc1ccc(OP(=O)(O)O)cc1)NC(=O)/C=C/c1ccc(O)c(O)c1)C(=O)N[C@@H](CCC(=O)O)C(=O)O [Caffeic acid-pYEEIE] (Caffeoyl-[pY]EEIE-OH)"
  Assayed System: "STAT2 (Homo sapiens, UniProt P52630)"
  percent of DMSO vehicle control at 10 µM, %: 0
